Reported values of inhibition for individual entries
# protocol_details: growth inhibitors of yeast BB579 in restrictive medium, primary screen, yeast lifespan-shortening project, S. cerevisiae (AID 804)
# experimental_setup: OD615, 48 h, at 10 µM, active compounds read high
Among all 140,000 compounds or so, about 710 (0.51%) were called active. For the sample, actives were picked, then their nearest neighbours and some compounds at random.
Entry rule: numbers only, all in %.

compound: O=C(Nc1ncccn1)c1cccs1
observable: inhibition
measured_result: -21.9
--
compound: Cc1cccc(NC(=S)NCc2ccc3[nH]c4c(c3c2)CCCC4)c1
observable: inhibition
measured_result: 15.9
--
compound: COc1cccc(N(C(=O)C2COc3ccccc3O2)C(C(=O)NC2CCCCC2)c2ccc(O)cc2)c1 (stereo unspecified)
observable: inhibition
measured_result: -6.16
--
compound: Cc1ccc(SCCC(=O)NC(C(C)C)C(C)C)cc1
observable: inhibition
measured_result: -7.21
--
compound: Cc1ccc(Cl)cc1N1CCN(C(=O)c2cccc3c(=O)c(C)c(-c4ccccc4)oc23)CC1
observable: inhibition
measured_result: -11.9
--
compound: N#C/C(=C\c1ccccc1C(F)(F)F)C(=O)Nc1ccccc1F
observable: inhibition
measured_result: 4.84
--
compound: COc1cc(Br)cc(/C=N/c2ncn[nH]2)c1O
observable: inhibition
measured_result: 54.7
--
compound: COCCn1c(SCC(=O)Nc2ccc3c(c2)CCC3)nc2ccccc2c1=O
observable: inhibition
measured_result: -36.9

# get_value(readout='inhibition', item= O=C(CCc1nc2ccccc2c(=O)[nH]1)OCC(=O)c1cccc(Cl)c1 )
-13.4

# get_value(readout='inhibition', item= O=[N+]([O-])c1cc(C(F)(F)F)ccc1NN=C1CCCC1 )
-8.75

# get_value(readout='inhibition', item= COc1ccc(Br)cc1/C=N/n1c(C)nnc1C )
-33.3

# get_value(readout='inhibition', item= COc1ccc(NC(=O)Nc2ccc3nc(C)c(C)nc3c2)cc1 )
-50.2

# get_value(readout='inhibition', item= O=S(=O)(c1ccc(F)cc1)N1CCN(C(=S)NCc2ccco2)CC1 )
-18

# get_value(readout='inhibition', item= CC(C)(C)c1ccc(/C=C/C(=O)Nc2ncccn2)cc1 )
-6.47

# get_value(readout='inhibition', item= COc1ccc(C2Nc3ccccc3C(=O)N2c2ccc(F)cc2)cc1Cn1nnc2ccccc21 (stereo unspecified) )
-29.1

# get_value(readout='inhibition', item= COc1ccc2nc(SCc3ccccc3)nc(C)c2c1 )
-34.5

Where these numbers come from: PubChem BioAssay AID804
